# reported Chromatographic purity %; entries follow
- TEST SUMMARY: Stability of the compounds under high temperature, high humidity and light (influence factors, HPLC)
- Assay type: physicochemical
- CONDITION SUMMARY: 0 day, 0point

{"COMPOUND": "COC(=O)[C@H](c1ccccc1Cl)N1CCc2sc(OC(=O)/C=C/c3ccc(OC)cc3)cc2C1 [Compound D-8, reference compound]", "Chromatographic purity %, %": 99.118}
{"COMPOUND": "COC(=O)[C@H](c1ccccc1Cl)N1CCc2sc(OC(C)=O)cc2C1.Cl [Compound D-9, reference compound]", "Chromatographic purity %, %": 99.802}
{"COMPOUND": "C/C=C/C=C/C(=O)Oc1cc2c(s1)CCN([C@H](C(=O)OC)c1ccccc1Cl)C2", "Chromatographic purity %, %": 98.879}
{"COMPOUND": "C/C=C/C(=O)Oc1cc2c(s1)CCN([C@H](C(=O)OC)c1ccccc1Cl)C2", "Chromatographic purity %, %": 99.612}

----------
- TEST SUMMARY: Stability of the compounds under high temperature, high humidity and light (influence factors, HPLC)
- Format: physicochemical
- CONDITION SUMMARY: 10 days, High temperature 60° C.
# key: entry, value: Chromatographic purity %
EXPERIMENTAL READOUT: Chromatographic purity % (%)

{"MOLECULE": "COC(=O)[C@H](c1ccccc1Cl)N1CCc2sc(OC(C)=O)cc2C1.Cl [Compound D-9, reference compound]", "UNIT ANNOTATION": "%", "RECORDED MEASUREMENT": 84.395}
{"MOLECULE": "C/C=C/C=C/C(=O)Oc1cc2c(s1)CCN([C@H](C(=O)OC)c1ccccc1Cl)C2", "UNIT ANNOTATION": "%", "RECORDED MEASUREMENT": 98.930}
{"MOLECULE": "C/C=C/C(=O)Oc1cc2c(s1)CCN([C@H](C(=O)OC)c1ccccc1Cl)C2", "UNIT ANNOTATION": "%", "RECORDED MEASUREMENT": 99.596}
{"MOLECULE": "COC(=O)[C@H](c1ccccc1Cl)N1CCc2sc(OC(=O)/C=C/c3ccc(OC)cc3)cc2C1 [Compound D-8, reference compound]", "UNIT ANNOTATION": "%", "RECORDED MEASUREMENT": 93.371}

----------
- TEST SUMMARY: Stability of the compounds under high temperature, high humidity and light (influence factors, HPLC)
- Format: physicochemical
- CONDITION SUMMARY: 10 days, High humidity RH92.5%
EXPERIMENTAL READOUT: Chromatographic purity %

{"COMPOUND": "COC(=O)[C@H](c1ccccc1Cl)N1CCc2sc(OC(=O)/C=C/c3ccc(OC)cc3)cc2C1 [Compound D-8, reference compound]", "EXPERIMENTAL READOUT": "Chromatographic purity %", "RECORDED MEASUREMENT": "99.202%"}
{"COMPOUND": "C/C=C/C(=O)Oc1cc2c(s1)CCN([C@H](C(=O)OC)c1ccccc1Cl)C2 [Compound I-1]", "EXPERIMENTAL READOUT": "Chromatographic purity %", "RECORDED MEASUREMENT": "99.578%"}
{"COMPOUND": "COC(=O)[C@H](c1ccccc1Cl)N1CCc2sc(OC(C)=O)cc2C1.Cl [Compound D-9, reference compound]", "EXPERIMENTAL READOUT": "Chromatographic purity %", "RECORDED MEASUREMENT": "3.827%"}
{"COMPOUND": "C/C=C/C=C/C(=O)Oc1cc2c(s1)CCN([C@H](C(=O)OC)c1ccccc1Cl)C2 [Compound I-2]", "EXPERIMENTAL READOUT": "Chromatographic purity %", "RECORDED MEASUREMENT": "98.882%"}

----------
- Tested on: platelet aggregation induced by ADP
- TEST SUMMARY: Test of inhibitory effect of compounds on platelet aggregation in rats (ex vivo, ADP-induced, after intragastric administration)
- Design: species or system SD rats
- CONDITION SUMMARY: platelet aggregation, rats, intragastric 1 mg/kg, control = 100%

{"COMPOUND": "C=C/C=C/C(=O)Oc1cc2c(s1)CCN([C@H](C(=O)OC)c1ccccc1Cl)C2", "Inhibition rate (%)": 44.0}
{"COMPOUND": "CCC/C=C/C(=O)Oc1cc2c(s1)CCN([C@H](C(=O)OC)c1ccccc1Cl)C2", "Inhibition rate (%)": 52.8}
{"COMPOUND": "CC/C=C/C(=O)Oc1cc2c(s1)CCN([C@H](C(=O)OC)c1ccccc1Cl)C2", "Inhibition rate (%)": 38.2}
{"COMPOUND": "C/C=C/C(=O)Oc1cc2c(s1)CCN([C@H](C(=O)OC)c1ccccc1Cl)C2", "Inhibition rate (%)": 50.2}
{"COMPOUND": "CC(=O)Oc1cc2c(s1)CCN(C(C(=O)C1CC1)c1ccccc1F)C2 (centres unmarked) [Prasugrel, reference compound]", "Inhibition rate (%)": 75.0}

----------
- TEST SUMMARY: Stability of the compounds under high temperature, high humidity and light (influence factors, HPLC)
- Type: physicochemical
- CONDITION SUMMARY: 5 days, High humidity RH92.5%
EXPERIMENTAL READOUT: Chromatographic purity %

{"MOLECULE": "C/C=C/C=C/C(=O)Oc1cc2c(s1)CCN([C@H](C(=O)OC)c1ccccc1Cl)C2 [Compound I-2]", "RECORDED MEASUREMENT": "98.897%"}
{"MOLECULE": "C/C=C/C(=O)Oc1cc2c(s1)CCN([C@H](C(=O)OC)c1ccccc1Cl)C2 [Compound I-1]", "RECORDED MEASUREMENT": "99.583%"}
{"MOLECULE": "COC(=O)[C@H](c1ccccc1Cl)N1CCc2sc(OC(C)=O)cc2C1.Cl [Compound D-9, reference compound]", "RECORDED MEASUREMENT": "29.362%"}
{"MOLECULE": "COC(=O)[C@H](c1ccccc1Cl)N1CCc2sc(OC(=O)/C=C/c3ccc(OC)cc3)cc2C1 [Compound D-8, reference compound]", "RECORDED MEASUREMENT": "99.253%"}

----------
Below, each entry is listed alongside its reported Chromatographic purity %.
- TEST SUMMARY: Stability of the compounds under high temperature, high humidity and light (influence factors, HPLC)
- Format: physicochemical
- CONDITION SUMMARY: 5 days, High temperature 60° C.

{"MOLECULE": "COC(=O)[C@H](c1ccccc1Cl)N1CCc2sc(OC(C)=O)cc2C1.Cl [Compound D-9, reference compound]", "Chromatographic purity % (%)": 92.725}
{"MOLECULE": "COC(=O)[C@H](c1ccccc1Cl)N1CCc2sc(OC(=O)/C=C/c3ccc(OC)cc3)cc2C1 [Compound D-8, reference compound]", "Chromatographic purity % (%)": 96.953}
{"MOLECULE": "C/C=C/C(=O)Oc1cc2c(s1)CCN([C@H](C(=O)OC)c1ccccc1Cl)C2", "Chromatographic purity % (%)": 99.595}
{"MOLECULE": "C/C=C/C=C/C(=O)Oc1cc2c(s1)CCN([C@H](C(=O)OC)c1ccccc1Cl)C2", "Chromatographic purity % (%)": 98.840}

----------
Chromatographic purity % values for the compounds below.
- TEST SUMMARY: Stability of the compounds under high temperature, high humidity and light (influence factors, HPLC)
- Format: physicochemical
- CONDITION SUMMARY: 10 days, Light 4500 ± 500 LX

{"COMPOUND": "COC(=O)[C@H](c1ccccc1Cl)N1CCc2sc(OC(C)=O)cc2C1.Cl [Compound D-9, reference compound]", "Chromatographic purity % / %": 96.472}
{"COMPOUND": "COC(=O)[C@H](c1ccccc1Cl)N1CCc2sc(OC(=O)/C=C/c3ccc(OC)cc3)cc2C1 [Compound D-8, reference compound]", "Chromatographic purity % / %": 80.960}
{"COMPOUND": "C/C=C/C(=O)Oc1cc2c(s1)CCN([C@H](C(=O)OC)c1ccccc1Cl)C2", "Chromatographic purity % / %": 99.502}
{"COMPOUND": "C/C=C/C=C/C(=O)Oc1cc2c(s1)CCN([C@H](C(=O)OC)c1ccccc1Cl)C2", "Chromatographic purity % / %": 98.756}

----------
- TEST SUMMARY: Stability of the compounds under high temperature, high humidity and light (influence factors, HPLC)
- Type: physicochemical
- CONDITION SUMMARY: 30 days, High temperature 60° C.

{"COMPOUND": "COC(=O)[C@H](c1ccccc1Cl)N1CCc2sc(OC(=O)/C=C/c3ccc(OC)cc3)cc2C1 [Compound D-8, reference compound]", "Chromatographic purity %": "80.070%"}
{"COMPOUND": "C/C=C/C(=O)Oc1cc2c(s1)CCN([C@H](C(=O)OC)c1ccccc1Cl)C2", "Chromatographic purity %": "99.570%"}
{"COMPOUND": "C/C=C/C=C/C(=O)Oc1cc2c(s1)CCN([C@H](C(=O)OC)c1ccccc1Cl)C2", "Chromatographic purity %": "98.936%"}
{"COMPOUND": "COC(=O)[C@H](c1ccccc1Cl)N1CCc2sc(OC(C)=O)cc2C1.Cl [Compound D-9, reference compound]", "Chromatographic purity %": "39.866%"}
